- ASSAY_TARGET: PI3Kγ (Homo sapiens (Human), UniProt P48736)
- Sequence (P48736 whole entry, canonical isoform): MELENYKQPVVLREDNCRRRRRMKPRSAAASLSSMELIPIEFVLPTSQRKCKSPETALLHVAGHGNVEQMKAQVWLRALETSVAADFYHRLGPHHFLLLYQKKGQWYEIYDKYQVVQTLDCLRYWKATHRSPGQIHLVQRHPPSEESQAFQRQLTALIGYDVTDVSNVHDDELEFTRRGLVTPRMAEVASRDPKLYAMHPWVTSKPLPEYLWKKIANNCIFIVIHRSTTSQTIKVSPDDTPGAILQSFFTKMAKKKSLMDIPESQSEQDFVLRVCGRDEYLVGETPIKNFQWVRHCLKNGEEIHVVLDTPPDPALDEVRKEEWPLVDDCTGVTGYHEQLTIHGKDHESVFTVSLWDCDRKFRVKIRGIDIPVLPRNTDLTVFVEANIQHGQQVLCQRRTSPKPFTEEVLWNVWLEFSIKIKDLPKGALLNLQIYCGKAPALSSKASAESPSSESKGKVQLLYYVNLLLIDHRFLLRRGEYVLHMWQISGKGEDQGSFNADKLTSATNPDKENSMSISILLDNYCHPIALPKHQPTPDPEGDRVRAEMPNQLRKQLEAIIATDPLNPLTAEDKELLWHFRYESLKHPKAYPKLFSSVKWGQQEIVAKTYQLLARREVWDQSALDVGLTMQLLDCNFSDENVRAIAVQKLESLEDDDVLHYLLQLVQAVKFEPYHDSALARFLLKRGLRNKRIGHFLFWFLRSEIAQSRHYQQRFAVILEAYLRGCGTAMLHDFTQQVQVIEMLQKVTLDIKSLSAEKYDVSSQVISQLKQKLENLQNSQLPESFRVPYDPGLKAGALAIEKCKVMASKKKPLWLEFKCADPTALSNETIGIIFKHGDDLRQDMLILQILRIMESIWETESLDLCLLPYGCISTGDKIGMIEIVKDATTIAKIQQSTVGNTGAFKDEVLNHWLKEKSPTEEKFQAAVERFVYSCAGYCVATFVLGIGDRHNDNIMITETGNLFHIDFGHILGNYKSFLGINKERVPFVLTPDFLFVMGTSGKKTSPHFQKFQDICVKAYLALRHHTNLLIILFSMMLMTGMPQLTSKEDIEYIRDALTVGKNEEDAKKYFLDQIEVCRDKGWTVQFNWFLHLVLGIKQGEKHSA
- ASSAY_PROCEDURE: TR-FRET enzymatic activity assay against PI3K isoforms
- TEST_PARAMETERS: 2×Km ATP, 30 minutes at 25° C.
EXPERIMENTAL_READOUT: IC50 (nM)

Examples with their reported IC50 follow.
Briefly, IC50 measured for CS(=O)(=O)CCCCn1c([C@@H](Nc2nc(N)nc(N)c2C#N)C2CC2)nc2cccc(Cl)c2c1=O : 120

Briefly, IC50 measured for N#Cc1c(Cl)nc(N)nc1N[C@H](c1nc2cccc(Cl)c2c(=O)n1CCCN)C1CC1 : 6000

Briefly, IC50 measured for NCCCn1c([C@@H](Nc2ncnc3cccnc23)C2CC2)nc2cccc(Cl)c2c1=O : 4800

Briefly, IC50 measured for CNCCCn1c([C@H](C)Nc2nc(N)nc(N)c2C#N)nc2cccc(Cl)c2c1=O : 2400

Briefly, IC50 measured for C[C@H](Nc1nc(N)nc(N)c1C#N)c1nc2cccc(Cl)c2c(=O)n1C[C@@H]1CCNC1 : 2500

A. C[C@H](Nc1ncnc(N)c1C#N)c1nc2cccc(Cl)c2c(=O)n1[C@H]1C[C@@H](O)C1
B. C[C@H](NC(=O)c1nc(Br)c(N)nc1N)c1nc2cccc(Cl)c2c(=O)n1CCCN
Select the item with the higher value of IC50 from the options A and B listed. State the label of the item chosen. B

----------
- ASSAY_TARGET: PI3Kγ (Homo sapiens (Human))
- ASSAY_PROCEDURE: TR-FRET enzymatic activity assay against PI3K isoforms
- TEST_PARAMETERS: 2×Km ATP, 30 minutes at 25° C.
pIC50: −log10 of the molar value.
EXPERIMENTAL_READOUT: pIC50

Examples with their reported pIC50 follow.
Briefly, pIC50 measured for COCCCn1c([C@H](C)Nc2ncnc(N)c2C#N)nc2cccc(Cl)c2c1=O : 5.08

Briefly, pIC50 measured for CC(=O)NCCCn1c([C@@H](Nc2nc(N)nc(N)c2C#N)C2CC2)nc2cccc(Cl)c2c1=O : 6.72

P. C[C@H](Nc1nc(N)nc(N)c1C#N)c1nc2cccc(Cl)c2c(=O)n1Cc1cc[nH]n1
Q. C[C@H](Nc1nc(N)nc(N)c1C#N)c1nc2cccc(Cl)c2c(=O)n1CCCN(C)CC(F)(F)F
R. C[C@H](Nc1nc(N)nc(N)c1C#N)c1nc2cccc(Cl)c2c(=O)n1CCN(C)C
Arrange the 3 molecules by rising pIC50, starting with the smallest. Your reply should list the labels following the order given in the request. R, Q, P
(R: 5.18, Q: 6.02, P: 6.80)

----------
- ASSAY_TARGET: UniProtKB P48736
- ASSAY_PROCEDURE: TR-FRET enzymatic activity assay against PI3K isoforms
- TEST_PARAMETERS: 2×Km ATP, 30 minutes at 25° C.
EXPERIMENTAL_READOUT: IC50 (nM)

The measured IC50 that C[C@H](NC(=O)c1c(N)nn2cccnc12)c1nc2cccc(Cl)c2c(=O)n1CCCN showed for UniProtKB P48736 is 3200

1. CC[C@H](Nc1nc(N)nc(N)c1C#N)c1nc2cccc(Cl)c2c(=O)n1CCCS(C)(=O)=O
2. COC(C)(C)CCn1c([C@H](C)Nc2nc(N)nc(N)c2C#N)nc2cccc(Cl)c2c1=O
Select the item with the higher value of IC50 from the options 1 and 2 listed. State the label of the item chosen. 1
